- TEST: Phase 1 single ascending dose plasma pharmacokinetics in healthy volunteers
- Assay type: in vivo, human
- CONDITION DETAILS: human, po, 600 mg, Group 2, 600 mg single oral dose, Mean (N 6), read-out: Cmax
- Experimental: This study was conducted in healthy human volunteers in a randomized, double-blind design. Compound 1 or placebo was administered as a single oral dose to twenty-eight healthy volunteers in three separate dose groups. […] Pharmacokinetic data from each volunteer is summarized in Table 29, and plasma concentration data is shown graphically in FIG. 19.
MEASURED PROPERTY: Cmax (ng/mL)
// note: answer is a bare numeric in ng/mL

Task: Quick one: Cmax of CC(=O)c1nn(CC(=O)N2C[C@H](F)C[C@H]2C(=O)Nc2cccc(Br)n2)c2ccc(-c3cnc(C)nc3)cc12 ?
Result: 2020

* * *

- TEST: Ocular tissue and plasma pharmacokinetics, 15 mg/kg single and BID oral, Dutch Belted rabbits (Example 3/5)
- Format: in vivo
- CONDITION DETAILS: Dutch Belted, rabbit, retina, po, 15 mg/kg, DB rabbit, 15 mg/kg single oral dose, Day 1, 6 h; read-out: Mean retina concentration
MEASURED PROPERTY: concentration at 6 h (ng/g)
// note: answer is a bare numeric in ng/g

Task: Quick one: concentration at 6 h of CC(=O)c1nn(CC(=O)N2C[C@H](F)C[C@H]2C(=O)Nc2cccc(Br)n2)c2ccc(-c3cnc(C)nc3)cc12 [Compound 1] ?
Result: 29.6

* * *

- TEST: Ocular tissue and plasma pharmacokinetics, 50 mg/kg BID oral, Dutch Belted rabbits (Example 4/5)
- Format: in vivo
- CONDITION DETAILS: male, Dutch Belted, rabbit, plasma, po, 50 mg/kg, DB rabbit, 50 mg/kg BID oral, Day 15, 0 h; read-out: Mean plasma concentration
MEASURED PROPERTY: concentration at 0 h (ng/mL)
// note: answer is a bare numeric in ng/mL

Task: Quick one: concentration at 0 h of CC(=O)c1nn(CC(=O)N2C[C@H](F)C[C@H]2C(=O)Nc2cccc(Br)n2)c2ccc(-c3cnc(C)nc3)cc12 [Compound 1] ?
Result: 104

* * *

- TEST: Ocular tissue distribution and pharmacokinetics, 7.5 and 15 mg/kg oral, pigmented Dutch Belted rabbits (Example 7)
- Format: in vivo
- CONDITION DETAILS: Dutch Belted, rabbit, retina, oral, 15 mg/kg BID, DB rabbits, Day 15, 15 mg/kg BID, 168 hr; read-out: Mean Retina Concentration
- Description: For Group 1, two animals/time point were sacrificed via an overdose of sodium pentobarbital at approximately 1, 6, 12, 24, 96, 168, and 240 hours postdose. Blood (approximately 2 mL) was collected from all animals at sacrifice into tubes containing K2EDTA via exsanguination (cardiac puncture). […]
MEASURED PROPERTY: concentration at 168 h
Write your answer as a measured quantity: the number, then the unit.

Task: Quick one: concentration at 168 h of CC(=O)c1nn(CC(=O)N2C[C@H](F)C[C@H]2C(=O)Nc2cccc(Br)n2)c2ccc(-c3cnc(C)nc3)cc12 ?
Result: 22.5 ng/g

* * *

- TEST: Ocular tissue distribution and pharmacokinetics, 15 mg/kg BID oral, nonpigmented New Zealand White rabbits (Example 7)
- Type: in vivo
- CONDITION DETAILS: New Zealand White, rabbit, plasma, oral; NZW rabbits, Day 15, 15 mg/kg BID, 12 hr
MEASURED PROPERTY: concentration at 12 h (µg/mL)
// note: answer is a bare numeric in µg/mL

Task: Quick one: concentration at 12 h of CC(=O)c1nn(CC(=O)N2C[C@H](F)C[C@H]2C(=O)Nc2cccc(Br)n2)c2ccc(-c3cnc(C)nc3)cc12 ?
Result: 0.0822

* * *

- TEST: Ocular tissue and plasma pharmacokinetics, 50 mg/kg BID oral, Dutch Belted rabbits (Example 4/5)
- Format: in vivo
- CONDITION DETAILS: male, Dutch Belted, po; Choroid-RPE, DB rabbit, 50 mg/kg BID, Day 15
MEASURED PROPERTY: MRT last
Write your answer as a measured quantity: the number, then the unit.

Task: Quick one: MRT last of CC(=O)c1nn(CC(=O)N2C[C@H](F)C[C@H]2C(=O)Nc2cccc(Br)n2)c2ccc(-c3cnc(C)nc3)cc12 ?
Result: 68.6 h

* * *

- TEST: Ocular tissue distribution and pharmacokinetics, 7.5 and 15 mg/kg oral, pigmented Dutch Belted rabbits (Example 7)
- Type: in vivo
- CONDITION DETAILS: Dutch Belted, rabbit, iris-ciliary body, oral, 15 mg/kg, DB rabbits, Day 15, 15 mg/kg BID, 24 hr; read-out: Mean Iris-Ciliary Concentration
- Method: For Group 1, two animals/time point were sacrificed via an overdose of sodium pentobarbital at approximately 1, 6, 12, 24, 96, 168, and 240 hours postdose. Blood (approximately 2 mL) was collected from all animals at sacrifice into tubes containing K2EDTA via exsanguination (cardiac puncture). […]
MEASURED PROPERTY: concentration at 24 h (ng/g)
// note: answer is a bare numeric in ng/g

Task: Quick one: concentration at 24 h of CC(=O)c1nn(CC(=O)N2C[C@H](F)C[C@H]2C(=O)Nc2cccc(Br)n2)c2ccc(-c3cnc(C)nc3)cc12 [Compound 1] ?
Result: 460

* * *

- TEST: Ocular tissue distribution and pharmacokinetics, 7.5 and 15 mg/kg oral, pigmented Dutch Belted rabbits (Example 7)
- Assay type: in vivo
- CONDITION DETAILS: Dutch Belted, rabbit, plasma, oral, […], DB rabbits, Day 15, […] BID, 24 hr; read-out: Mean Plasma Concentration
MEASURED PROPERTY: concentration at 24 h (ng/mL)
// note: answer is a bare numeric in ng/mL

Task: Quick one: concentration at 24 h of CC(=O)c1nn(CC(=O)N2C[C@H](F)C[C@H]2C(=O)Nc2cccc(Br)n2)c2ccc(-c3cnc(C)nc3)cc12 [Compound 1] ?
Result: 6.64

* * *

- TEST: Ocular tissue and plasma pharmacokinetics, 15 mg/kg single and BID oral, Dutch Belted rabbits (Example 3/5)
- Assay type: in vivo
- CONDITION DETAILS: Dutch Belted, rabbit, vitreous humor, po, 15 mg/kg, DB rabbit, 15 mg/kg BID oral, Day 15, 0 h; read-out: Mean Vitreous Humor concentration
MEASURED PROPERTY: concentration at 0 h (ng/mL)
// note: answer is a bare numeric in ng/mL

Task: Quick one: concentration at 0 h of CC(=O)c1nn(CC(=O)N2C[C@H](F)C[C@H]2C(=O)Nc2cccc(Br)n2)c2ccc(-c3cnc(C)nc3)cc12 ?
Result: 3.27

* * *

- TEST: Ocular tissue and plasma pharmacokinetics, 50 mg/kg BID oral, Dutch Belted rabbits (Example 4/5)
- Assay type: in vivo
- CONDITION DETAILS: male, Dutch Belted, rabbit, retina, oral, 50 mg/kg, DB rabbits, Day 15, 50 mg/kg BID, 168 hr; read-out: Mean Retina Concentration
MEASURED PROPERTY: concentration at 168 h (ng/g)
// note: answer is a bare numeric in ng/g

Task: Quick one: concentration at 168 h of CC(=O)c1nn(CC(=O)N2C[C@H](F)C[C@H]2C(=O)Nc2cccc(Br)n2)c2ccc(-c3cnc(C)nc3)cc12 [Compound 1] ?
Result: 54.9

* * *

- TEST: Ocular tissue distribution and pharmacokinetics, 7.5 and 15 mg/kg oral, pigmented Dutch Belted rabbits (Example 7)
- Type: in vivo
- CONDITION DETAILS: Dutch Belted, rabbit, plasma, oral, […], DB rabbits, Day 1, […] single dose, 6 hr; read-out: Mean Plasma Concentration
MEASURED PROPERTY: concentration at 6 h (ng/mL)
// note: answer is a bare numeric in ng/mL

Task: Quick one: concentration at 6 h of CC(=O)c1nn(CC(=O)N2C[C@H](F)C[C@H]2C(=O)Nc2cccc(Br)n2)c2ccc(-c3cnc(C)nc3)cc12 ?
Result: 25.1

* * *

- TEST: Ocular tissue distribution and pharmacokinetics, 15 mg/kg BID oral, nonpigmented New Zealand White rabbits (Example 7)
- Type: in vivo
- CONDITION DETAILS: New Zealand White, rabbit, iris-ciliary body, oral; NZW rabbits, Day 15, 15 mg/kg BID, 6 hr; read-out: Mean Iris-Ciliary Concentration
MEASURED PROPERTY: concentration at 6 h (ng/g)
// note: answer is a bare numeric in ng/g

Task: Quick one: concentration at 6 h of CC(=O)c1nn(CC(=O)N2C[C@H](F)C[C@H]2C(=O)Nc2cccc(Br)n2)c2ccc(-c3cnc(C)nc3)cc12 ?
Result: 21.2

* * *

- TEST: Ocular tissue and plasma pharmacokinetics, 15 mg/kg single and BID oral, Dutch Belted rabbits (Example 3/5)
- Assay type: in vivo
- CONDITION DETAILS: Dutch Belted, rabbit, vitreous humor, po, 15 mg/kg, DB rabbit, 15 mg/kg single oral dose, Day 1, 6 h; read-out: Mean Vitreous Humor concentration
MEASURED PROPERTY: concentration at 6 h (ng/mL)
// note: answer is a bare numeric in ng/mL

Task: Quick one: concentration at 6 h of CC(=O)c1nn(CC(=O)N2C[C@H](F)C[C@H]2C(=O)Nc2cccc(Br)n2)c2ccc(-c3cnc(C)nc3)cc12 [Compound 1] ?
Result: 3.66
